Study System: Glutamate receptor ionotropic, kainate 1 (Rattus norvegicus)
Experimental Details: Displacement of [3H]-NF608 from rat GluK1 assessed as percent of radioligand binding at 10 uM relative to control
// reported Activity for each item listed
The response must be a number in % with no trailing unit.

>  <Compound Structure String>
O=C(O)C[C@@H]1[C@@H](C(=O)O)NC[C@@H]1n1nncc1-c1cccc(C(F)(F)F)c1

>  <Activity / %>
92

$$$$
>  <Compound Structure String>
COc1cccc(-c2cnnn2[C@H]2CN[C@H](C(=O)O)[C@H]2CC(=O)O)c1

>  <Activity / %>
88

$$$$
>  <Compound Structure String>
O=C(O)C[C@@H]1[C@@H](C(=O)O)NC[C@@H]1n1nncc1CN1CCS(=O)(=O)CC1

>  <Activity / %>
97

$$$$
>  <Compound Structure String>
O=C(O)C[C@@H]1[C@@H](C(=O)O)NC[C@@H]1n1nncc1Cc1ccccc1

>  <Activity / %>
99

$$$$

We next turn to a different compound, shown below.
Which Activity is reported with Glutamate receptor ionotropic, kainate 1 (Rattus norvegicus) for this entry: O=C(O)C[C@@H]1[C@@H](C(=O)O)NC[C@@H]1n1nncc1-c1cccnc1 ?
98
